system: Saccharomyces cerevisiae; assay: protein stability index of tFT-peptide fusion (C-terminal peptide) (PSI (0-1 scale)); higher = more stable (slower turnover); conditions: genetic background: wild type; temperature: 30 C;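 also: PSI is a weighted mean of sequencing reads over stability bins, variants kept only with over 10 reads, mCherry proximal and sfGFP distal, peptide attached via GGGS linker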
Assign protein stability index to each entry below.
Numbers only.

GRSQGIWVSRGE : 0.683
LFLVVVVRAGGF : 0.293
RGRFVVGAGRED : 0.67
QRNPQNKDRVQD : 0.663
AACNGGPMNQTR : 0.7

Hi team, please reply with protein stability index for each item in this list.
1. PAPLSRPLSPTL
2. TTTYQLSQTITI
3. SGGIPGSPNVRL
4. IWIRLGSENTVI
5. EGSSGVLESRAG
6. LVMYRSALIRGH

Reply text:
0.684
0.646
0.657
0.443
0.671
0.462

Hi team, please reply with protein stability index for each item in this list.
1. ESCWVSRVGVCR
2. QIERSRIAYLST
3. ILLSETEMIDAD
4. RLHSLLFYALGS
5. CNCGGRGCGWMR
6. KKEEQEKKNRNK

Reply text:
1: 0.694; 2: 0.693; 3: 0.683; 4: 0.668; 5: 0.651; 6: 0.711

Hi team, please reply with protein stability index for each item in this list.
1. GGGVSFWLGGVA
2. SCFLISIPLGFV

Reply text:
1: 0.633; 2: 0.568
